- study target: HLA-A*0201 (human)
- method summary: competition with 125I-labelled standard peptide for purified HLA
- condition set: remark: other sources report otherwise
assay endpoint: IC50 (µM)
// units = µM; emit number, no label

Given the entry DLMLLRLSEPV [peptide 1419.13, PSA.116.V11 / HuK2.120.V11] , report its measured IC50. 0.05
